Origin of the recorded values: ChEMBL document CHEMBL1126807

species: Rattus norvegicus; assay: Tested for inhibition of bone resorption by osteoclasts in a bone slice assay in rats at 10 e -7 M; type: functional
Metric name: IC50 (nM)
The reply should contain only the number, in nM.

I would be grateful if you could share the reported IC50 for `CCOC(=O)CCC(=O)c1cnc2c(OC)cccc2c1Nc1ccccc1C` .
2000

* * *

assay: Tested for reversible inhibition against gastric H+/K+-ATPase isolated from porcine gastric microsomes; value ranges from […]; type: functional, Sus scrofa, Stomach
Metric name: IC50
Write the figure, then the unit, nothing else.

I would be grateful if you could share the reported IC50 for `CCOC(=O)CCC(=O)c1cnc2c(OC)cccc2c1Nc1ccccc1C` .
10 µM

* * *

assay: Tested for reversible inhibition against gastric H+/K+-ATPase isolated from porcine gastric microsomes; value ranges from 3-10 uM; format: functional, Sus scrofa, Stomach
Metric name: pIC50
Keep it numeric: pIC50 is minus log10 of the concentration in mol/L.

I would be grateful if you could share the reported pIC50 for `CCOC(=O)c1cnc2c(OC)cccc2c1Nc1ccccc1C` .
5.52

* * *

species: Rattus norvegicus; test: Tested for inhibition of bone resorption by osteoclasts in a bone slice assay in rats at 10 e -5 M; assay type: functional
Metric name: IC50 (µM)
The reply should contain only the number, in µM.

I would be grateful if you could share the reported IC50 for `CCOC(=O)c1cnc2c(OC)cccc2c1Nc1ccccc1C` .
4
